Assay: Rat PK study #4 (Compound A PO 0.2 and 1.0 mg/kg, propylene glycol formulation)
Format: in vivo, Lewis rats
Settings: male, Lewis, rat, plasma, po, 0.2 mg/kg, Lewis rats, PO 0.2 mg/kg, propylene glycol-based formulation, 0.25 h, mean of 3 animals
endpoint_label: concentration at 0.25 h

Bench note: what concentration at 0.25 h did Cn1cc(-c2ccccc2)c(-c2cn(C)c(=O)c3[nH]c(-c4cnn(C(F)(F)F)c4)cc23)cc1=O show? 0.34 ng/mL

---

Assay: Rat PK study #1 (Compound A PO, methylcellulose vs propylene glycol formulation)
Format: in vivo, Lewis rats
Conditions: male, Lewis, rat, plasma, po, 10 mg/kg, Lewis rats, PO 10 mg/kg, propylene glycol/Vitamin E TPGS/water formulation, 4 h, individual animals
endpoint_label: concentration at 4 h

May I ask what concentration at 4 h has been recorded for Cn1cc(-c2ccccc2)c(-c2cn(C)c(=O)c3[nH]c(-c4cnn(C(F)(F)F)c4)cc23)cc1=O ? 445 ng/mL
